# TGT: recombinant human IL-1B (human, UniProt P01584 117-269)
# PROCEDURE_TEXT: cell-based or functional assay
// values below are reported IC50, rec. human IL-1 B, HEK blue
Respond numerically; units are nM and should not be typed.

BINDER: Antibody B4 (antibody, V domains shown) VH: EVQLVQSGAEVKKPGASVKVSCKASGFSFTGYYMHWVRQAPGQGLEWVGLIIPHNDYTVNNQKFKGRVTMTRDTSTSTAYMELSSLRSEDTAVYYCARSDYYGAMDYWGQGTLVTVSS VL: EIVMTQSPATLSVSPGERATLSCRASQNIGTSIHWYQQKPGQAPRLLIKYASDSKDGIPARFSGSGSGTEFTLTISSLQSEDIAVYYCQQGASWPPFTFGQGTKLEIK
UNIT_ANNOTATION: nM
IC50, rec. human IL-1 B, HEK blue: 0.018

The record that follows has no IC50, rec. human IL-1 B, HEK blue shown yet.
Recorded IC50, rec. human IL-1 B, HEK blue (binder Antibody B3 (antibody, V domains shown) VH: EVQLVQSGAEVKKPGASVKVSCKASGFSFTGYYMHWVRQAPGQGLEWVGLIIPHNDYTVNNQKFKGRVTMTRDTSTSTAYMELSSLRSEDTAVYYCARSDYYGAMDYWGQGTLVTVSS VL: EIVMTQSPATLSVSPGERATLSCRASQNIGTSIHWYQQKPGQAPRLLIKYASDSVYGIPARFSGSGSGTEFTLTISSLQSEDIAVYYCQQGASWPPFTFGQGTKLEIK ): 0.008

Reference source for all entries: patent WO2016008851A1
